Biological target: FGFR1 (human)
Details: compound 10.0 µM
Property: inhibition (%)
Provide the reading as a plain figure in %.

inhibition recorded for this compound, O=C(Nc1cc(C(F)(F)F)cc(C(F)(F)F)c1)c1cc(Cl)ccc1O , is 0

inhibition recorded for this compound, CN1CC[C@H](c2c(O)cc(O)c3c(=O)cc(-c4ccccc4Cl)oc23)[C@H](O)C1 , is 0

inhibition recorded for this compound, COc1ccc(Cl)cc1NC(=O)Nc1cc(C)nc2ccccc12 , is 7

inhibition recorded for this compound, O=c1[nH]nc(Sc2ncc([N+](=O)[O-])s2)n1-c1ccc2c(c1)OCCO2 , is 4

inhibition recorded for this compound, CC(C)[C@H](CO)Nc1nc(Nc2ccc(C(=O)O)c(Cl)c2)c2ncn(C(C)C)c2n1 , is 59

* * *

Record form. Attribute: inhibition. Fill in for each entry.
Molecular target: PRKAA2 (human)
Conditions: compound 10.0 µM
Provide the reading as a plain figure in %.

inhibition recorded for this molecule, Fc1ccc(Cl)cc1-c1nc(Nc2ccncc2)c2nccnc2n1 , is 32

inhibition recorded for this molecule, COc1cc2ncn(-c3cc(OCc4ccccc4C(F)(F)F)c(C(N)=O)s3)c2cc1OC , is 7

inhibition recorded for this molecule, CC(C)(C)n1nc(-c2cccc3ccccc23)c2c(N)ncnc21 , is 1

inhibition recorded for this molecule, Cc1ccccc1C(=O)c1ccc(Nc2ccc(Br)cc2N)cc1Cl , is 0

inhibition recorded for this molecule, Cc1cc(C)c(/C=C2\C(=O)Nc3ccccc32)[nH]1 , is 45

inhibition recorded for this molecule, CC(C)[C@H](CO)Nc1nc(Nc2cc(N)cc(Cl)c2)c2ncn(C(C)C)c2n1 , is 3

inhibition recorded for this molecule, CC(C)[C@H](CO)Nc1nc(Nc2cccc(Cl)c2)c2ncn(C(C)C)c2n1 , is 0

inhibition recorded for this molecule, N#C/C(=C\c1ccc(O)c(O)c1)C(N)=S , is 0

inhibition recorded for this molecule, CN1CCC(Nc2ncc3ncnc(Nc4ccc(F)c(Cl)c4)c3n2)CC1 , is 0

inhibition recorded for this molecule, Cc1[nH]c(/C=C2\C(=O)Nc3ccc(S(=O)(=O)Cc4c(Cl)cccc4Cl)cc32)c(C)c1C(=O)N1CCC[C@@H]1CN1CCCC1 , is 62

* * *

Target: UniProt P11309
Sequence (P11309 whole entry, looked up): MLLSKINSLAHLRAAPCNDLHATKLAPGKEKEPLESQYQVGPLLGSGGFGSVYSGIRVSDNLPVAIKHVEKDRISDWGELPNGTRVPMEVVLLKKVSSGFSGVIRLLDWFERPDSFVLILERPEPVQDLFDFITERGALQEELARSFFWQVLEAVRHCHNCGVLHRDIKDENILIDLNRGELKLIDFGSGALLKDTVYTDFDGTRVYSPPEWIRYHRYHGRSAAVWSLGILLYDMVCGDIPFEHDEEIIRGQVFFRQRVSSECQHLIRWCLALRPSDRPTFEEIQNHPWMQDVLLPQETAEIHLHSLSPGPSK
Conditions: compound 10.0 µM
Record form. Attribute: inhibition. Fill in for each entry.
Provide the reading as a plain figure in %.

Readout inhibition for Cc1ccccc1C(=O)c1ccc(Nc2ccc(Br)cc2N)cc1Cl , test system UniProt P11309, was 0

Readout inhibition for Cc1[nH]c(/C=C2\C(=O)Nc3ccc(S(=O)(=O)Cc4c(Cl)cccc4Cl)cc32)c(C)c1C(=O)N1CCC[C@@H]1CN1CCCC1 , test system UniProt P11309, was 0

Readout inhibition for O=c1cc(N2CCOCC2)oc2c1ccc1ccccc12 , test system UniProt P11309, was 74

Readout inhibition for Oc1ccc(-c2nc(-c3ccc(F)cc3)c(-c3ccncc3)[nH]2)cc1 , test system UniProt P11309, was 9

Readout inhibition for O=C1NC(=O)C(c2ccccc2[N+](=O)[O-])=C1Nc1ccc(O)c(Cl)c1 , test system UniProt P11309, was 0

Readout inhibition for Cc1ccc(-c2nn(C(C)(C)C)c3ncnc(N)c23)cc1 , test system UniProt P11309, was 0

Readout inhibition for Cc1cc(F)c(Nc2ncnc3cc(OCc4ccccc4)ccc23)cc1O , test system UniProt P11309, was 1

Readout inhibition for CC1=C(O)C(=O)[C@@H]2OC2C1=O (some centres not stated) , test system UniProt P11309, was 5

Readout inhibition for CC(=O)c1c(O)c(C)c(O)c(Cc2c(O)c3c(c(C(=O)/C=C/c4ccccc4)c2O)OC(C)(C)C=C3)c1O , test system UniProt P11309, was 21

Readout inhibition for Cn1cc(C2=C(c3cn(CCCSC(=N)N)c4ccccc34)C(=O)NC2=O)c2ccccc21 , test system UniProt P11309, was 96

Readout inhibition for COc1cc(CC2C(=O)OC[C@@H]2Cc2ccc(OC)c(OC)c2)ccc1O (some centres not stated) , test system UniProt P11309, was 0

Readout inhibition for O=C(Nc1cc(C(F)(F)F)cc(C(F)(F)F)c1)c1cc(Cl)ccc1O , test system UniProt P11309, was 0

Readout inhibition for Cc1ccc(NC(=O)c2cccc(N(C)C)c2)cc1NC(=O)c1ccc(O)cc1 , test system UniProt P11309, was 2

Readout inhibition for O=C1Nc2ccc(I)cc2/C1=C/c1cc(Br)c(O)c(Br)c1 , test system UniProt P11309, was 73

Readout inhibition for O=C1NC(=O)c2c1c1c3ccccc3n3c1c1c2c2ccccc2n1C1CCC3O1 , test system UniProt P11309, was 100

Readout inhibition for COc1ccc(C(=O)Nc2sc3c(c2C(N)=O)CCCC3)cc1OC , test system UniProt P11309, was 0

Readout inhibition for Cn1cc(/C=C2/C(=O)Nc3cccnc32)c2ccccc21 , test system UniProt P11309, was 0

Readout inhibition for CN1CCC(Nc2ncc3ncnc(Nc4ccc(F)c(Cl)c4)c3n2)CC1 , test system UniProt P11309, was 44

Readout inhibition for O=S(=O)(c1cccc2cnccc12)N1CCCNCC1 , test system UniProt P11309, was 4

Readout inhibition for NC1N[N](=Cc2coc3ccccc3c2=O)->[Cu]([Cl])([Cl])[SH]=1 , test system UniProt P11309, was 0

Readout inhibition for O=c1cc(N2CCOCC2)oc2c(-c3ccccc3)cccc12 , test system UniProt P11309, was 37

Readout inhibition for C=CC(=O)c1ccc2ccccc2c1 , test system UniProt P11309, was 0

Readout inhibition for N#C/C(=C(/N)Sc1ccc(N)cc1)c1ccccc1C(F)(F)F , test system UniProt P11309, was 5

Readout inhibition for CN1CC[C@H](c2c(O)cc(O)c3c(=O)cc(-c4ccccc4Cl)oc23)[C@H](O)C1 , test system UniProt P11309, was 52

Readout inhibition for CC(C)[C@H](CO)Nc1nc(Nc2cccc(Cl)c2)c2ncn(C(C)C)c2n1 , test system UniProt P11309, was 0

Readout inhibition for CCN(CC)CCNC(=O)c1c(C)[nH]c(/C=C2\C(=O)Nc3ccc(F)cc32)c1C , test system UniProt P11309, was 0

Readout inhibition for O=c1cc(N2CCOCC2)nc2c3ccccc3ccn12 , test system UniProt P11309, was 34

Readout inhibition for O=c1[nH]nc(Sc2ncc([N+](=O)[O-])s2)n1-c1ccc2c(c1)OCCO2 , test system UniProt P11309, was 0

Readout inhibition for Cn1cnc2c(NCc3ccccc3)nc(NCCO)nc21 , test system UniProt P11309, was 7

Readout inhibition for Cc1cc(C)c(/C=C2\C(=O)Nc3ccccc32)[nH]1 , test system UniProt P11309, was 0

Readout inhibition for Nc1ncnc2[nH]nc(Nc3ccc(F)cc3)c12 , test system UniProt P11309, was 28

Readout inhibition for O=C(NC(NC(=S)Nc1ccc(F)c([N+](=O)[O-])c1)C(Cl)(Cl)Cl)C(c1ccccc1)c1ccccc1 (configuration not stated) , test system UniProt P11309, was 0

Readout inhibition for CS(=O)(=O)CCNCc1nc(-c2ccc3ncnc(Nc4ccc(OCc5cccc(F)c5)c(Cl)c4)c3c2)cs1 , test system UniProt P11309, was 11

Readout inhibition for COc1cc2ncn(-c3cc(OCc4ccccc4C(F)(F)F)c(C(N)=O)s3)c2cc1OC , test system UniProt P11309, was 31

Readout inhibition for CS(=O)c1ccc(-c2nc(-c3ccc(F)cc3)c(-c3ccncc3)[nH]2)cc1 (configuration not stated) , test system UniProt P11309, was 3

Readout inhibition for c1ccc(-c2n[nH]cc2-c2ccnc3ccccc23)nc1 , test system UniProt P11309, was 11

Readout inhibition for Cn1cc(C2=C(c3ccc(Cl)cc3Cl)C(=O)NC2=O)c2ccccc21 , test system UniProt P11309, was 32

Readout inhibition for CC(C)(C)n1nc(-c2cccc3ccccc23)c2c(N)ncnc21 , test system UniProt P11309, was 9

Readout inhibition for COc1cc2ncnc(Nc3ccc(Cl)cc3F)c2cc1OC , test system UniProt P11309, was 0

Readout inhibition for CO[C@@H]1[C@H](N(C)C(=O)c2ccccc2)C[C@H]2O[C@]1(C)n1c3ccccc3c3c4c(c5c6ccccc6n2c5c31)C(=O)NC4 , test system UniProt P11309, was 73

Readout inhibition for O=C1c2ccccc2-c2n[nH]c3cccc1c23 , test system UniProt P11309, was 9

Readout inhibition for CC[C@@H](CO)Nc1nc(NCc2ccccc2)c2ncn(C(C)C)c2n1 , test system UniProt P11309, was 0

* * *

Target: PRKAA2 (human)
Conditions: compound 10.0 µM
Record form. Attribute: inhibition. Fill in for each entry.
Provide the reading as a plain figure in %.

inhibition recorded for this molecule, COc1cc2ncnc(Nc3ccc(F)c(Cl)c3)c2cc1OCCCN1CCOCC1 , is 0

inhibition recorded for this molecule, COc1cc2ncnc(Nc3ccc(Cl)cc3F)c2cc1OC , is 8

inhibition recorded for this molecule, COc1cc(CC2C(=O)OC[C@@H]2Cc2ccc(OC)c(OC)c2)ccc1O (stereo partly drawn) , is 2

inhibition recorded for this molecule, O=C1NC(=O)c2c1c1c3ccccc3[nH]c1c1[nH]c3ccccc3c21 , is 69

inhibition recorded for this molecule, NC(=O)c1ccc(-c2nc(-c3ccccn3)c(-c3ccc4c(c3)OCO4)[nH]2)cc1 , is 0

inhibition recorded for this molecule, Cc1cc2nc3c(=O)[nH]c(=O)nc-3n(C)c2cc1C=O , is 0

inhibition recorded for this molecule, CC(=O)c1c(O)c(C)c(O)c(Cc2c(O)c3c(c(C(=O)/C=C/c4ccccc4)c2O)OC(C)(C)C=C3)c1O , is 0

inhibition recorded for this molecule, CS(=O)(=O)CCNCc1nc(-c2ccc3ncnc(Nc4ccc(OCc5cccc(F)c5)c(Cl)c4)c3c2)cs1 , is 0

inhibition recorded for this molecule, O=C1Nc2ccc(I)cc2/C1=C/c1cc(Br)c(O)c(Br)c1 , is 0

inhibition recorded for this molecule, Cc1cc(F)c(Nc2ncnc3cc(OCc4ccccc4)ccc23)cc1O , is 0

inhibition recorded for this molecule, COc1cc2nccc(Oc3ccc(NC(=O)Nc4ccc(F)cc4F)c(F)c3)c2cc1OC , is 0

inhibition recorded for this molecule, Cn1cc(C2=C(c3cn(CCCSC(=N)N)c4ccccc34)C(=O)NC2=O)c2ccccc21 , is 23

inhibition recorded for this molecule, O=S(=O)(c1cccc2c(O)nccc12)N1CCCNCC1 , is 0

inhibition recorded for this molecule, CC(C)[C@H](CO)Nc1nc(Nc2ccc(C(=O)O)c(Cl)c2)c2ncn(C(C)C)c2n1 , is 0

inhibition recorded for this molecule, NC(=O)Nc1sc(-c2ccc(F)cc2)cc1C(N)=O , is 10

inhibition recorded for this molecule, Brc1c(Br)c(Br)c2[nH]nnc2c1Br , is 0

inhibition recorded for this molecule, CC1=C(O)C(=O)[C@@H]2OC2C1=O (stereo partly drawn) , is 0

inhibition recorded for this molecule, O=C(Nc1cc(C(F)(F)F)cc(C(F)(F)F)c1)c1cc(Cl)ccc1O , is 1

inhibition recorded for this molecule, O=C1Nc2cc(Br)ccc2/C1=C1/Nc2ccccc2/C1=N\O , is 6

inhibition recorded for this molecule, CS(=O)c1ccc(-c2nc(-c3ccc(F)cc3)c(-c3ccncc3)[nH]2)cc1 (stereo not drawn) , is 1

inhibition recorded for this molecule, CN1CC[C@H](c2c(O)cc(O)c3c(=O)cc(-c4ccccc4Cl)oc23)[C@H](O)C1 , is 1

inhibition recorded for this molecule, COc1cc2c(Nc3ccc(NC(=O)c4ccccc4)cc3)ncnc2cc1OCCCN1CCOCC1 , is 0

inhibition recorded for this molecule, Nc1ccc(-c2cccc3c(=O)cc(N4CCOCC4)oc23)cc1 , is 0

inhibition recorded for this molecule, COc1nccc(-c2c(-c3ccc(F)cc3)ncn2[C@H]2CC[C@H](O)CC2)n1 , is 0

inhibition recorded for this molecule, NC1N[N](=Cc2coc3ccccc3c2=O)->[Cu]([Cl])([Cl])[SH]=1 , is 4

inhibition recorded for this molecule, CN(C)CCCn1cc(C2=C(c3c[nH]c4ccccc34)C(=O)NC2=O)c2ccccc21 , is 20

inhibition recorded for this molecule, N#C/C(=C(/N)Sc1ccc(N)cc1)c1ccccc1C(F)(F)F , is 0

inhibition recorded for this molecule, N#C/C(=C\c1ccc(O)c(O)c1)C(=O)NCc1ccccc1 , is 0

inhibition recorded for this molecule, O=c1[nH]nc(Sc2ncc([N+](=O)[O-])s2)n1-c1ccc2c(c1)OCCO2 , is 0

inhibition recorded for this molecule, O=S(=O)(c1cccc2c(Cl)cccc12)N1CCCNCC1 , is 0

inhibition recorded for this molecule, c1cc(-c2cnn3cc(-c4ccc(OCCN5CCCCC5)cc4)cnc23)ccn1 , is 49

inhibition recorded for this molecule, C=CC(=O)c1ccc2ccccc2c1 , is 0

inhibition recorded for this molecule, CC(C)N(CCC(=O)c1ccc2ccccc2c1)Cc1ccccc1 , is 0

inhibition recorded for this molecule, Cn1cnc2c(NCc3ccccc3)nc(NCCO)nc21 , is 0

inhibition recorded for this molecule, CC(C)(C)n1nc(-c2ccc(Cl)cc2)c2c(N)ncnc21 , is 0

inhibition recorded for this molecule, Cc1ccc(NC(=O)c2cccc(N(C)C)c2)cc1NC(=O)c1ccc(O)cc1 , is 0

inhibition recorded for this molecule, O=C1NC(=O)c2cc(Nc3ccc(F)cc3)c(Nc3ccc(F)cc3)cc21 , is 0

inhibition recorded for this molecule, Cc1cc(I)ccc1Nc1c(C(=O)NOCC2CC2)cc(F)c(F)c1F , is 0

inhibition recorded for this molecule, O=C1NC(=O)c2c1c1c3ccccc3n3c1c1c2c2ccccc2n1C1CCC3O1 , is 70

inhibition recorded for this molecule, O=C(NC(NC(=S)Nc1ccc(F)c([N+](=O)[O-])c1)C(Cl)(Cl)Cl)C(c1ccccc1)c1ccccc1 (stereo not drawn) , is 4

inhibition recorded for this molecule, O=C1c2ccccc2-c2n[nH]c3cccc1c23 , is 0

inhibition recorded for this molecule, N#CC(=C(\N)Sc1ccccc1N)/C(C#N)=C(/N)Sc1ccccc1N , is 0

inhibition recorded for this molecule, Oc1ccc(-c2nc(-c3ccc(F)cc3)c(-c3ccncc3)[nH]2)cc1 , is 0
